B1: ZNF449 (parent)
chain: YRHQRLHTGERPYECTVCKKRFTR

Variants of: B1
procedure.summary: protein stability index of a GFP-peptide fusion (GPS, HEK-293T) (PSI 1-6); higher = more stable;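 also: lentivirally expressed fusions sorted by FACS into six bins by GFP to DsRed ratio, PSI derived from sequencing read proportions per bin multiplied by bin number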
cond: c terminus: a fixed tail appended
measurement.name: protein stability index
Just the number, please, no unit attached.

Give the value of protein stability index reported for the following: "YRHQRLHTGERPYWCTVCKKRFTR"
2.59

Give the value of protein stability index reported for the following: "YRHQRLHTGERPYECTVCKQRFTR"
2.29

Give the value of protein stability index reported for the following: "YRHQRLHTGERDYECTVCKKRFTR"
2.83

Give the value of protein stability index reported for the following: "YRHQRLHTGQRPYECTVCKKRFTR"
2.54

Give the value of protein stability index reported for the following: "YRHQRLHTAERPYECTVCKKRFTR"
2.26

Give the value of protein stability index reported for the following: "YRHQRKHTGERPYECTVCKKRFTR"
2.34

Give the value of protein stability index reported for the following: "YRHQPLHTGERPYECTVCKKRFTR"
2.08

Give the value of protein stability index reported for the following: "YRMQRLHTGERPYECTVCKKRFTR"
2.14

Give the value of protein stability index reported for the following: "YRHPRLHTGERPYECTVCKKRFTR"
2.03

Give the value of protein stability index reported for the following: "YRHQRLHTGERPYEGTVCKKRFTR"
3.7

Give the value of protein stability index reported for the following: "YRHQRLHTGERPYNCTVCKKRFTR"
2.7

Give the value of protein stability index reported for the following: "YRHQRLHTGERPYECTVCKKEFTR"
2.39

Give the value of protein stability index reported for the following: "YRHQRLHTGEFPYECTVCKKRFTR"
2.68

Give the value of protein stability index reported for the following: "YRHNRLHTGERPYECTVCKKRFTR"
2.24

Give the value of protein stability index reported for the following: "YRHQRLHTVERPYECTVCKKRFTR"
2.07

Give the value of protein stability index reported for the following: "YRHQRLHTGWRPYECTVCKKRFTR"
2.34

Give the value of protein stability index reported for the following: "YRHQRLHTGERPEECTVCKKRFTR"
2.63

Give the value of protein stability index reported for the following: "YRHQRLHTGYRPYECTVCKKRFTR"
3.09

Give the value of protein stability index reported for the following: "YRHQRLHTGERPYYCTVCKKRFTR"
2.39

Give the value of protein stability index reported for the following: "YRHQRLHTGERPYECTVCKKRFKR"
2.54

Give the value of protein stability index reported for the following: "YRHQRLHTGERPYECTVCKKHFTR"
2.56

Give the value of protein stability index reported for the following: "YRHQRLHTGERPYECTVCYKRFTR"
1.95

Give the value of protein stability index reported for the following: "FRHQRLHTGERPYECTVCKKRFTR"
1.65

Give the value of protein stability index reported for the following: "YRHQRLHTRERPYECTVCKKRFTR"
2.45

Give the value of protein stability index reported for the following: "YRCQRLHTGERPYECTVCKKRFTR"
2.4

Give the value of protein stability index reported for the following: "YRHQRLHTFERPYECTVCKKRFTR"
2.01

Give the value of protein stability index reported for the following: "YRHQRLHTGERPYECQVCKKRFTR"
2.27

Give the value of protein stability index reported for the following: "YRHQRLRTGERPYECTVCKKRFTR"
2.24

Give the value of protein stability index reported for the following: "YRHQRLHTGENPYECTVCKKRFTR"
2.1

Give the value of protein stability index reported for the following: "YRHQRWHTGERPYECTVCKKRFTR"
2.38

Give the value of protein stability index reported for the following: "YRHQRLHTGERPYECTQCKKRFTR"
2.47

Give the value of protein stability index reported for the following: "YRHQRLHTGEREYECTVCKKRFTR"
2.38

Give the value of protein stability index reported for the following: "YNHQRLHTGERPYECTVCKKRFTR"
1.56

Give the value of protein stability index reported for the following: "YRHQRLHTGERPYECTVCAKRFTR"
2.68

Give the value of protein stability index reported for the following: "YRHQRLVTGERPYECTVCKKRFTR"
2.18

Give the value of protein stability index reported for the following: "YRHQRLHTHERPYECTVCKKRFTR"
2.81

Give the value of protein stability index reported for the following: "YRHIRLHTGERPYECTVCKKRFTR"
1.93

Give the value of protein stability index reported for the following: "YRHQRLHTGERPYECTVCKKRNTR"
3.09

Give the value of protein stability index reported for the following: "YRHQRQHTGERPYECTVCKKRFTR"
2.38

Give the value of protein stability index reported for the following: "YRHQRLHTGERPYECTVCKKSFTR"
1.65

Give the value of protein stability index reported for the following: "YRHQRLHTGERPYECTVCKKRFCR"
2.7

Give the value of protein stability index reported for the following: "YRHQRLHTGERPYECTVCKKRFTN"
2.47

Give the value of protein stability index reported for the following: "YRHQRLHTGERPYECYVCKKRFTR"
2.75

Give the value of protein stability index reported for the following: "YRHQRLHTGERPYELTVCKKRFTR"
3.11

Give the value of protein stability index reported for the following: "YRHQRLHTGERNYECTVCKKRFTR"
2.71

Give the value of protein stability index reported for the following: "YRHQRLHTGERPYACTVCKKRFTR"
2.5

Give the value of protein stability index reported for the following: "YRHQRLHTGERPYESTVCKKRFTR"
3.02

Give the value of protein stability index reported for the following: "YRHWRLHTGERPYECTVCKKRFTR"
2.11

Give the value of protein stability index reported for the following: "YRHQRSHTGERPYECTVCKKRFTR"
2.38

Give the value of protein stability index reported for the following: "YRHQRLHTSERPYECTVCKKRFTR"
2.33

Give the value of protein stability index reported for the following: "YRHQRLHTGERPYECTVCKWRFTR"
1.61

Give the value of protein stability index reported for the following: "YRHQRLHTGERPYECWVCKKRFTR"
2.03

Give the value of protein stability index reported for the following: "YRHQRLHTGERPYECTVCKKRFTS"
2.3

Give the value of protein stability index reported for the following: "YRHARLHTGERPYECTVCKKRFTR"
2.44

Give the value of protein stability index reported for the following: "YRHQRLHTGERPYERTVCKKRFTR"
3.53

Give the value of protein stability index reported for the following: "YRHQRLHTGERPYECTVCKKLFTR"
2.02

Give the value of protein stability index reported for the following: "YRHQRLHTGERPYECTDCKKRFTR"
3.07

Give the value of protein stability index reported for the following: "YRHQRLHTGERPYECTKCKKRFTR"
3.69

Give the value of protein stability index reported for the following: "YRHQRRHTGERPYECTVCKKRFTR"
2.7

Give the value of protein stability index reported for the following: "YRKQRLHTGERPYECTVCKKRFTR"
2.05

Give the value of protein stability index reported for the following: "YRHQRLHTGERIYECTVCKKRFTR"
2.1

Give the value of protein stability index reported for the following: "YRAQRLHTGERPYECTVCKKRFTR"
1.89

Give the value of protein stability index reported for the following: "YRHHRLHTGERPYECTVCKKRFTR"
3.41

Give the value of protein stability index reported for the following: "YRHQRLHTGERSYECTVCKKRFTR"
2.34

Give the value of protein stability index reported for the following: "YRHQRLHTGEDPYECTVCKKRFTR"
2.67

Give the value of protein stability index reported for the following: "YRHQRLHTGEGPYECTVCKKRFTR"
2.71

Give the value of protein stability index reported for the following: "YLHQRLHTGERPYECTVCKKRFTR"
2.16

Give the value of protein stability index reported for the following: "YRHQVLHTGERPYECTVCKKRFTR"
2.19

Give the value of protein stability index reported for the following: "YRHQRLHTGERPYECTVCKKMFTR"
1.89

Give the value of protein stability index reported for the following: "YRHQRLHTGERPYECTVCKGRFTR"
2.36

Give the value of protein stability index reported for the following: "YRHQRLHTGERGYECTVCKKRFTR"
2.21

Give the value of protein stability index reported for the following: "YRHQRLHTGERPYECTVCKTRFTR"
2.03

Give the value of protein stability index reported for the following: "YRHQRLTTGERPYECTVCKKRFTR"
2.35

Give the value of protein stability index reported for the following: "YRHQRLHTGERQYECTVCKKRFTR"
2.2

Give the value of protein stability index reported for the following: "YRHQRLHTGEAPYECTVCKKRFTR"
2.26

Give the value of protein stability index reported for the following: "YRHQRLHTGERPYECTVCKKDFTR"
2.46

Give the value of protein stability index reported for the following: "YRLQRLHTGERPYECTVCKKRFTR"
1.52

Give the value of protein stability index reported for the following: "YRHQRLHTGERPLECTVCKKRFTR"
2.08

Give the value of protein stability index reported for the following: "YRHQRLHTGERPYECTPCKKRFTR"
3.17

Give the value of protein stability index reported for the following: "YRHQRLHTGERPYECTVCKRRFTR"
1.9

Give the value of protein stability index reported for the following: "YRHQRLFTGERPYECTVCKKRFTR"
1.46

Give the value of protein stability index reported for the following: "YRHQRLHTGERPYEDTVCKKRFTR"
3.51

Give the value of protein stability index reported for the following: "YRHQRLHTGERPYECTVCKKRFPR"
2.45

The measurements presented in this section are drawn from the supplement of paper PMC10567573.
